Tested on: SGK3;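 note: KINOMEscan kinase panel screen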
Conditions: concentration: 1 μM, replicates: in singlicate; n = 1
%Inh listing for selected molecules.
endpoint_label: %Inh (%)

INSERT INTO measurements (molecule, output_unit, measured) VALUES
  ('COc1cc(OC)cc(-c2cc3cnc(N)nc3nc2NC(=O)NC(C)(C)C)c1', '%', 17),
  ('CCn1c(-c2ccoc2)nc2cnccc21', '%', 4),
  ('CCC(=O)c1c(-c2ccccc2)c2cc(Cl)ccc2c(=O)n1Cc1cc(S(C)(=O)=O)n(CC(F)F)n1', '%', 0),
  ('COc1cccc(-n2cnc3c(N)ncnc32)c1', '%', 0),
  ('Cl.c1ccc(Cn2cnc3cc(Nc4ncnc5ccccc45)ccc32)cc1', '%', 0),
  ('O=C(Nc1ccc2c(c1)OCO2)NC1CCN(c2ccnc(NCc3ccc(F)cc3)n2)CC1', '%', 0),
  ('O=C(Nc1n[nH]c2nc(-c3ccccc3)c(Br)cc12)C1CC1', '%', 0),
  ('COC(=O)c1c(-c2ccccc2)c2cc(C)ccc2c(=O)n1Cc1ccccc1', '%', 0),
  ('Cc1c(Cn2c(C)nn3c(=O)cc(N4CCO[C@H](C)C4)nc23)cccc1C(F)(F)F', '%', 0),
  ('COC(=O)c1c(-c2ccccc2)c2cc(Br)ccc2c(=O)n1Cc1ccc(S(C)(=O)=O)cc1', '%', 23),
  ('C[C@@H]1CC[C@H](C(=O)NC2CCCCC2)CN1c1cc(-c2ccc3c(N)n[nH]c3c2)nc(N)n1', '%', 13),
  ('Cn1c(=O)c(F)c(Nc2ccc(I)cc2F)c2c(=O)n(OC[C@H](O)CO)cnc21', '%', 0),
  ('Nc1nc(N)c2nc(-c3ccccc3)[nH]c2n1', '%', 7),
  ('COc1cc2ncn(-c3cc(OCCCc4ccccc4)c(C(N)=O)s3)c2cc1OC', '%', 0),
  ('Cl.NS(=O)(=O)c1cccc(Nc2cc(-c3ccc(F)cc3)n[nH]2)c1', '%', 0),
  ('COc1cc(Nc2nccc(N3CCC(NC(=O)C4COc5ccccc5O4)C3)n2)cc(OC)c1OC (stereo not drawn)', '%', 0),
  ('Nc1ncnc2c1ncn2-c1cccc2ccccc12', '%', 4),
  ('COc1ccc(-c2coc3ccc(-c4nnc(SCc5cccc(C#N)c5)o4)cc23)cc1', '%', 21);
